Test system: MCF7
EXPERIMENTAL DETAILS: Cytotoxicity against MCF-7 cells in the absence of 1 uM E2 (estradiol)
Type: functional, Homo sapiens
REPORTED PROPERTY: Cytotoxicity

SMILES STRUCTURE	TARGET SYSTEM	Cytotoxicity
CCCCC/C=C(\c1ccc(O)cc1)c1ccc(OCCN(C)C)cc1	MCF7	2.9 µM
CCCC/C=C(\c1ccc(O)cc1)c1ccc(OCCN(CC)CC)cc1	MCF7	2.9 µM
CC/C(=C(\c1ccc(O)cc1)c1ccc(OCCN(C)C)cc1)c1ccccc1	MCF7	6 µM

In: Output measured Cytotoxicity for this item: CCN(CC)CCOc1ccc(/C(=C/C(C)C)c2ccc(O)cc2)cc1
Out: 8.4 µM

In: Give recorded Cytotoxicity. CCCCCCCC/C=C(\c1ccc(O)cc1)c1ccc(OCCN(CC)CC)cc1
Out: 3.6 µM

In: Complete the entry with Cytotoxicity for CCCCCCCCCCCCCC/C=C(\c1ccc(O)cc1)c1ccc(OCCN(CC)CC)cc1
Out: 30 µM

In: Complete the entry with Cytotoxicity for CC(C)N(CCOc1ccc(C(=C2CCCCC2)c2ccc(OCCN(C(C)C)C(C)C)cc2)cc1)C(C)C
Out: 30 µM

In: Look up Cytotoxicity of CCCCCCCCCCCCCC/C=C(/c1ccc(O)cc1)c1ccc(OCCN(CC)CC)cc1 and report it.
Out: 30 µM

In: Provide Cytotoxicity value for the following compound: CCCCC/C=C(\c1ccc(O)cc1)c1ccc(OCCN(CC)CC)cc1
Out: 2.7 µM

In: Complete the entry with Cytotoxicity for CCN(CC)CCOc1ccc(/C(=C\C(C)C)c2ccc(O)cc2)cc1
Out: 9.2 µM

* * *

Test system: MCF7
EXPERIMENTAL DETAILS: Cytotoxicity against MCF-7 cells in the absence of 1 uM E2 (estradiol)
Type: functional, Homo sapiens
This section presents compounds with their documented Cytotoxicity values.
Please respond with the number in µM and leave the unit unwritten.

Solved entries (count: 4):
SMILES STRUCTURE	UNIT ABBREVIATION	TEST RESULT
CC(C)C=C(c1ccc(OCCN(C(C)C)C(C)C)cc1)c1ccc(OCCN(C(C)C)C(C)C)cc1	µM	3.6
CCN(CC)CCOc1ccc(/C(=C/Cc2ccccc2)c2ccc(O)cc2)cc1	µM	2.9
CCCC/C=C(/c1ccc(O)cc1)c1ccc(OCCN(CC)CC)cc1	µM	4.4
CCCCCCCC/C=C(/c1ccc(O)cc1)c1ccc(OCCN(CC)CC)cc1	µM	5.1

In: Return reported Cytotoxicity. Input compound: CCN(CC)CCOc1ccc(/C(=C\Cc2ccccc2)c2ccc(O)cc2)cc1
Out: 3.2

In: Provide one value: measured Cytotoxicity of CCCCCC/C=C(/c1ccc(O)cc1)c1ccc(OCCN(CC)CC)cc1
Out: 2.9

In: Tell me Cytotoxicity reported for CCCC/C(CC)=C(/c1ccc(O)cc1)c1ccc(OCCN(CC)CC)cc1.CCCC/C(CC)=C(\c1ccc(O)cc1)c1ccc(OCCN(CC)CC)cc1
Out: 2.8

In: Determine its reported Cytotoxicity: CC(C)N(CCOc1ccc(C(=C2CCCCC2)c2ccc(O)cc2)cc1)C(C)C
Out: 3.8

In: Provide Cytotoxicity value for the following compound: CCCCC/C=C(/c1ccc(O)cc1)c1ccc(OCCN(C)C)cc1
Out: 8.5
